Reported pIC50 values for a set of compounds
Target: Protein smoothened (Mus musculus)
Assay: Antagonist activity at mouse Smo receptor expressed in CHO cells by [3H]Hh-Ag binding assay
pIC50: −log10 of the molar value.

{"compound": "Cc1cccc(C(=O)Nc2ccc3c(c2)C[C@@H](NCc2cccs2)C3)c1-c1ccc(C(F)(F)F)cc1", "pIC50": 8.05}
{"compound": "O=C(Nc1ccc2c(c1)CC(NCc1ccccn1)C2)c1ccccc1-c1ccc(Cl)cc1 (racemic)", "pIC50": 5.57}
{"compound": "O=C(Nc1ccc2c(c1)CC(NCc1ccccn1)C2)c1ccccc1-c1ccc(C(F)(F)F)cc1 (racemic)", "pIC50": 6.31}
{"compound": "Cc1cccc(C(=O)Nc2ccc3c(c2)C[C@@H](NCc2nccs2)C3)c1-c1ccc(C(F)(F)F)cc1", "pIC50": 8.00}

====

Reported log10(IC50) values for a set of molecules
Target: Protein smoothened (Mus musculus, UniProt P56726)
Sequence (P56726 whole entry): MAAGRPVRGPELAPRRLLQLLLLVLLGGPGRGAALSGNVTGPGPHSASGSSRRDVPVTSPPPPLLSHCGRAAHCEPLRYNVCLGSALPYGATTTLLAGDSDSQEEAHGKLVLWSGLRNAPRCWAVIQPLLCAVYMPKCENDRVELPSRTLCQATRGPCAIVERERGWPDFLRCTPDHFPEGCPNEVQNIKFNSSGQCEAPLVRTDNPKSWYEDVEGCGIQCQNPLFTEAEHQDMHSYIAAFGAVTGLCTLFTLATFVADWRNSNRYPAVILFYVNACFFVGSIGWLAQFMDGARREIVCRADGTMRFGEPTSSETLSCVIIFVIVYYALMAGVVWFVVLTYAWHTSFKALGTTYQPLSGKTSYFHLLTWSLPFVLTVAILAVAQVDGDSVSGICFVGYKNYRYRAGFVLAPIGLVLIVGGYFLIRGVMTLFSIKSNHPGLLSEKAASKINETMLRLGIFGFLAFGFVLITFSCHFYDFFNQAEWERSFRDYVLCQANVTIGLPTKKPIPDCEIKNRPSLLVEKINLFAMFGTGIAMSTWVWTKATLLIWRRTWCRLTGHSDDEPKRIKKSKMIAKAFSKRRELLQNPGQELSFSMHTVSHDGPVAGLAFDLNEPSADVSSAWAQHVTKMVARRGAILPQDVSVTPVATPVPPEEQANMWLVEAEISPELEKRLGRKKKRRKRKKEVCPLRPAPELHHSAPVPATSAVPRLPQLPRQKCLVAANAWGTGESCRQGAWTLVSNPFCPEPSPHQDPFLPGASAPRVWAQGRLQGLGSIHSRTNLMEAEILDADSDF
Assay: Antagonist activity at mouse Smo receptor expressed in CHO cells by [3H]Hh-Ag binding assay
outcome.measure: log10(IC50) (log10 of the value in nM)

{"molecule": "COc1ccc(CN[C@H]2Cc3ccc(NC(=O)c4cccc(C)c4-c4ccc(C(F)(F)F)cc4)cc3C2)cc1", "outcome.measure": "log10(IC50)", "measured": 1.97}
{"molecule": "Cc1cccc(C(=O)Nc2ccc3c(c2)CC(NCc2ccccn2)C3)c1-c1ccc(C(F)(F)F)cc1 (racemic)", "outcome.measure": "log10(IC50)", "measured": 2.04}
{"molecule": "Cc1cccc(C(=O)Nc2ccc3c(c2)C[C@@H](NCc2scnc2C)C3)c1-c1ccc(C(F)(F)F)cc1", "outcome.measure": "log10(IC50)", "measured": 2.08}
{"molecule": "Cc1cccc(C(=O)Nc2ccc3c(c2)C[C@@H](NCc2ccncc2)C3)c1-c1ccc(C(F)(F)F)cc1", "outcome.measure": "log10(IC50)", "measured": 2.28}
{"molecule": "Cc1ccc(-c2ccc(C(F)(F)F)cc2)c(C(=O)Nc2ccc3c(c2)CC(NCc2ccccn2)C3)c1 (racemic)", "outcome.measure": "log10(IC50)", "measured": 3.94}
{"molecule": "Cc1cccc(C(=O)Nc2ccc3c(c2)C[C@H](NCc2ccccn2)C3)c1-c1ccc(C(F)(F)F)cc1", "outcome.measure": "log10(IC50)", "measured": 3.94}
{"molecule": "Cc1csc(CN[C@H]2Cc3ccc(NC(=O)c4cccc(C)c4-c4ccc(C(F)(F)F)cc4)cc3C2)n1", "outcome.measure": "log10(IC50)", "measured": 0.60}
{"molecule": "Cc1cccc(C(=O)Nc2ccc3c(c2)C[C@@H](NCc2ccccc2)C3)c1-c1ccc(C(F)(F)F)cc1", "outcome.measure": "log10(IC50)", "measured": 0.90}

====

Reported pIC50 values for a set of molecules
Biological target: Protein smoothened (Homo sapiens)
Sequence (Q99835 whole entry): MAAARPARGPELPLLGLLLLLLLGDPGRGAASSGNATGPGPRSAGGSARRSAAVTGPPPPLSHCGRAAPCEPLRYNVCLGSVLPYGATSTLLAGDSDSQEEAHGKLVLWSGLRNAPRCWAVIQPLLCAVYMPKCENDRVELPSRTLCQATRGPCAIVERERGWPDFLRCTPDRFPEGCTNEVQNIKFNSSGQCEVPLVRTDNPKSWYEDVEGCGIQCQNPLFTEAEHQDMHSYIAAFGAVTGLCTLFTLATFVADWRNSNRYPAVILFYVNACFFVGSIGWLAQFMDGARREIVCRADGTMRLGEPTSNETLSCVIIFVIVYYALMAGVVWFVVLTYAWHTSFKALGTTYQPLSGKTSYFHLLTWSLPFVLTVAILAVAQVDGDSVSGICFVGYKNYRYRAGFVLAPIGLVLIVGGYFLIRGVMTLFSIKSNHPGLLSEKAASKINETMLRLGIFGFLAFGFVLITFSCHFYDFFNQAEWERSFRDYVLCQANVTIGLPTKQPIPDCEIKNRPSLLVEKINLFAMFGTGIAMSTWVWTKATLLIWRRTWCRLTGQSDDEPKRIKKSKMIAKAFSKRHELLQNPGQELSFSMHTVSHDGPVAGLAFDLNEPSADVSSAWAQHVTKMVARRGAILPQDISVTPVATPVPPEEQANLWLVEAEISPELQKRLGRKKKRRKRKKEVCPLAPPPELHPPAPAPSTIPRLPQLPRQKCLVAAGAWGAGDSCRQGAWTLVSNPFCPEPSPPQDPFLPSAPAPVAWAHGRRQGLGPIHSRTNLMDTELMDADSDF
Assay: Antagonist activity at human Smo receptor expressed in CHO cells by [3H]Hh-Ag binding assay
pIC50: −log10 of the molar value.

{"molecule": "Cc1cccc(C(=O)Nc2ccc3c(c2)C[C@@H](NC(c2ccccc2)C(F)(F)F)C3)c1-c1ccc(C(F)(F)F)cc1 (some centres undefined)", "pIC50": 7.26}
{"molecule": "Cc1ccc(CN[C@H]2Cc3ccc(NC(=O)c4cccc(C)c4-c4ccc(C(F)(F)F)cc4)cc3C2)o1", "pIC50": 8.00}
{"molecule": "Cc1cccc(C(=O)Nc2ccc3c(c2)C[C@@H](NCc2ccccc2)C3)c1-c1ccc(C(F)(F)F)cc1", "pIC50": 7.85}
{"molecule": "Cc1cccc(C(=O)Nc2ccc3c(c2)C[C@@H](NC(C)c2ccccc2)C3)c1-c1ccc(C(F)(F)F)cc1 (some centres undefined)", "pIC50": 7.49}
